- EXPERIMENT SUMMARY: Log D7.4 measurement (octanol/PBS, gamma counting)
- Assay type: physicochemical
- PARTICULARS: pH 7.4, octanol/PBS, pH 7.4, n = 3

{"COMPOUND": "CCCCc1nc(Cl)c(COCC[18F])n1Cc1ccc(-c2ccccc2-c2nnn[nH]2)cc1 [[^18F]FEtLos, [^18F]fluoroethyl-losartan]", "logD": 0.21}

###

Recorded Ki values for a group of molecules are listed next.
- TGT: human AT1R (Homo sapiens)
- Sequence (P30556 1-359): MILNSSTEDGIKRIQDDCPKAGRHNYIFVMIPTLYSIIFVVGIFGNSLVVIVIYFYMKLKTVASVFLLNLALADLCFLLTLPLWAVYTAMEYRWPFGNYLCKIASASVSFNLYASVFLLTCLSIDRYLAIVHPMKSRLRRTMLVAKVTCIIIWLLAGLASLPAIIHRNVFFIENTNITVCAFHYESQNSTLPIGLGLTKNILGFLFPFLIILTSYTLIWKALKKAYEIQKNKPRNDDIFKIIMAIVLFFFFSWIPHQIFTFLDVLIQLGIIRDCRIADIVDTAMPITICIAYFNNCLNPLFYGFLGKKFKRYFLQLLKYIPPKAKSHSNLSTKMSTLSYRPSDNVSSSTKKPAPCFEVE
- EXPERIMENT SUMMARY: Competition binding assay in membranes containing human AT1R, [125I]-(Sar1,Ile8)-Angiotensin II as radioligand
- PARTICULARS: human AT1R membranes from CHO-K1 cells, displacement of [125I]-(Sar1,Ile8)-Angiotensin II, n = 3
QUANTITY NAME: Ki (nM)

{"CHEM SMILES": "CCCCc1nc(Cl)c(COCCF)n1Cc1ccc(-c2ccccc2-c2nnn[nH]2)cc1", "QUANTITY NAME": "Ki", "VALUE MEASURED": 2200}
{"CHEM SMILES": "CCCCc1nc(Cl)c(Cn2cc(C[N+](C)(C)C[B-](F)(F)F)nn2)n1Cc1ccc(-c2ccccc2-c2nnn[nH]2)cc1", "QUANTITY NAME": "Ki", "VALUE MEASURED": 7.9}
